Tested on: HCT-8
Assay: Induction of nitric oxide release in human HCT8 cells at 100 uM incubated for 150 mins by Griess assay
Assay type: functional, cell-based
Calls of active or inactive are those of the source. The rule behind the calls is not given here.
Labels: 1 (yes) for active, 0 (no) for inactive

INSERT INTO assay_data (compound_structure_string, study_target, answer_label) VALUES
  ('CC1(C)CC[C@]2(C(=O)NCC(=O)OCC#CCOc3no[n+]([O-])c3S(=O)(=O)c3ccccc3)CC[C@]3(C)[C@H](C(=O)C=C4[C@@]5(C)C=C(C#N)C(=O)C(C)(C)[C@@H]5CC[C@]43C)[C@@H]2C1', 'HCT-8', '1 (yes)'),
  ('C[C@@H](NC(=O)[C@]12CCC(C)(C)C[C@H]1[C@H]1C(=O)C=C3[C@@]4(C)C=C(C#N)C(=O)C(C)(C)[C@@H]4CC[C@@]3(C)[C@]1(C)CC2)C(=O)OCC#CCOc1no[n+]([O-])c1S(=O)(=O)c1ccccc1', 'HCT-8', '1 (yes)'),
  ('CC1(C)CC[C@]2(C(=O)N3CCC[C@H]3C(=O)OCCCCOc3no[n+]([O-])c3S(=O)(=O)c3ccccc3)CC[C@]3(C)[C@H](C(=O)C=C4[C@@]5(C)C=C(C#N)C(=O)C(C)(C)[C@@H]5CC[C@]43C)[C@@H]2C1', 'HCT-8', '0 (no)'),
  ('CC1(C)CC[C@]2(C(=O)N3CCC[C@H]3C(=O)OCCCOc3no[n+]([O-])c3S(=O)(=O)c3ccccc3)CC[C@]3(C)[C@H](C(=O)C=C4[C@@]5(C)C=C(C#N)C(=O)C(C)(C)[C@@H]5CC[C@]43C)[C@@H]2C1', 'HCT-8', '0 (no)'),
  ('CC1(C)CC[C@]2(C(=O)NCC(=O)O)CC[C@]3(C)[C@H](C(=O)C=C4[C@@]5(C)C=C(C#N)C(=O)C(C)(C)[C@@H]5CC[C@]43C)[C@@H]2C1', 'HCT-8', '0 (no)'),
  ('CC1(C)CC[C@]2(C(=O)N3CCC[C@H]3C(=O)OCCCCCCOc3no[n+]([O-])c3S(=O)(=O)c3ccccc3)CC[C@]3(C)[C@H](C(=O)C=C4[C@@]5(C)C=C(C#N)C(=O)C(C)(C)[C@@H]5CC[C@]43C)[C@@H]2C1', 'HCT-8', '0 (no)');

====

Assay: Antiproliferative activity against 5-FU resistant human HCT8 cells assessed as inhibition of cell proliferation after 72 hrs by MTT assay
Format: functional, cell-based
Conditions: HCT-8, 72 h
The entries below are paired with their reported IC50.
measurement_kind: IC50 (nM)

INSERT INTO measurements (compound_structure_string, measurement_kind, quantitative_readout) VALUES
  ('CC1(C)CC[C@]2(C(=O)NCC(=O)OCCCCCCOc3no[n+]([O-])c3S(=O)(=O)c3ccccc3)CC[C@]3(C)[C@H](C(=O)C=C4[C@@]5(C)C=C(C#N)C(=O)C(C)(C)[C@@H]5CC[C@]43C)[C@@H]2C1', 'IC50', 339),
  ('CC1(C)CC[C@]2(C(=O)NCC(=O)OCCCOc3no[n+]([O-])c3S(=O)(=O)c3ccccc3)CC[C@]3(C)[C@H](C(=O)C=C4[C@@]5(C)C=C(C#N)C(=O)C(C)(C)[C@@H]5CC[C@]43C)[C@@H]2C1', 'IC50', 380);

====

Experiment: Toxicity in female ICR mouse assessed as mouse mortality at 2.38 x 10^3 umol/kg administered as single dose via oral gavage measured up to 14 days post treatment
Assay type: organism-based
Conditions: in vivo
measurement_kind: mortality at 336 h (%)

INSERT INTO measurements (compound_structure_string, measurement_kind, value_unit, quantitative_readout) VALUES
  ('CC1(C)CC[C@]2(C(=O)NCC(=O)OCC#CCOc3no[n+]([O-])c3S(=O)(=O)c3ccccc3)CC[C@]3(C)[C@H](C(=O)C=C4[C@@]5(C)C=C(C#N)C(=O)C(C)(C)[C@@H]5CC[C@]43C)[C@@H]2C1', 'mortality at 336 h', '%', 0);

====

Assay: Antiproliferative activity against human HCT8 cells assessed as inhibition of cell proliferation after 72 hrs by MTT assay
Assay type: functional, cell-based
Conditions: HCT-8, 72 h
pIC50: −log10 of the molar value.
Use 6 as the dividing line for pIC50, with the line itself on the YES side and lower values as NO.

INSERT INTO results (compound, answer_label) VALUES
  ('COC(=O)[C@]12CCC(C)(C)C[C@H]1[C@H]1C(=O)C=C3[C@@]4(C)C=C(C#N)C(=O)C(C)(C)[C@@H]4CC[C@@]3(C)[C@]1(C)CC2 [BARDOXOLONE METHYL]', 'YES'),
  ('CC1(C)CC[C@]2(C(=O)NCC(=O)OCCCCCCOc3no[n+]([O-])c3S(=O)(=O)c3ccccc3)CC[C@]3(C)[C@H](C(=O)C=C4[C@@]5(C)C=C(C#N)C(=O)C(C)(C)[C@@H]5CC[C@]43C)[C@@H]2C1', 'YES'),
  ('O=S(=O)(c1ccccc1)c1c(OCC#CCO)no[n+]1[O-]', 'NO'),
  ('C[C@@H](NC(=O)[C@]12CCC(C)(C)C[C@H]1[C@H]1C(=O)C=C3[C@@]4(C)C=C(C#N)C(=O)C(C)(C)[C@@H]4CC[C@@]3(C)[C@]1(C)CC2)C(=O)OCC#CCOc1no[n+]([O-])c1S(=O)(=O)c1ccccc1', 'YES'),
  ('CC1(C)CC[C@]2(C(=O)NCC(=O)OCC#CCOc3no[n+]([O-])c3S(=O)(=O)c3ccccc3)CC[C@]3(C)[C@H](C(=O)C=C4[C@@]5(C)C=C(C#N)C(=O)C(C)(C)[C@@H]5CC[C@]43C)[C@@H]2C1', 'YES'),
  ('CC1(C)CC[C@]2(C(=O)NCC(=O)O)CC[C@]3(C)[C@H](C(=O)C=C4[C@@]5(C)C=C(C#N)C(=O)C(C)(C)[C@@H]5CC[C@]43C)[C@@H]2C1', 'NO'),
  ('CC1(C)CC[C@]2(C(=O)NCC(=O)OCCCCOc3no[n+]([O-])c3S(=O)(=O)c3ccccc3)CC[C@]3(C)[C@H](C(=O)C=C4[C@@]5(C)C=C(C#N)C(=O)C(C)(C)[C@@H]5CC[C@]43C)[C@@H]2C1', 'YES'),
  ('CC1(C)CC[C@]2(C(=O)NCCCC(=O)OCC#CCOc3no[n+]([O-])c3S(=O)(=O)c3ccccc3)CC[C@]3(C)[C@H](C(=O)C=C4[C@@]5(C)C=C(C#N)C(=O)C(C)(C)[C@@H]5CC[C@]43C)[C@@H]2C1', 'YES'),
  ('CC1(C)CC[C@]2(C(=O)NCCC(=O)OCC#CCOc3no[n+]([O-])c3S(=O)(=O)c3ccccc3)CC[C@]3(C)[C@H](C(=O)C=C4[C@@]5(C)C=C(C#N)C(=O)C(C)(C)[C@@H]5CC[C@]43C)[C@@H]2C1', 'YES');

====

Experiment: Antiproliferative activity against 5-FU resistant human HCT8 cells assessed as inhibition of cell proliferation after 72 hrs by MTT assay
Assay type: functional, cell-based
Conditions: HCT-8, 72 h
The entries below are paired with their reported IC50.
measurement_kind: IC50 (nM)

INSERT INTO assay_data (compound, quantitative_readout) VALUES
  ('O=c1[nH]cc(F)c(=O)[nH]1 [FLUOROURACIL]', 36600),
  ('CC1(C)CC[C@]2(C(=O)NCC(=O)OCCCCOc3no[n+]([O-])c3S(=O)(=O)c3ccccc3)CC[C@]3(C)[C@H](C(=O)C=C4[C@@]5(C)C=C(C#N)C(=O)C(C)(C)[C@@H]5CC[C@]43C)[C@@H]2C1', 315),
  ('CC1(C)CC[C@]2(C(=O)NCC(=O)OCCOCCOc3no[n+]([O-])c3S(=O)(=O)c3ccccc3)CC[C@]3(C)[C@H](C(=O)C=C4[C@@]5(C)C=C(C#N)C(=O)C(C)(C)[C@@H]5CC[C@]43C)[C@@H]2C1', 562),
  ('CC1(C)CC[C@]2(C(=O)N3CCC[C@H]3C(=O)OCC#CCOc3no[n+]([O-])c3S(=O)(=O)c3ccccc3)CC[C@]3(C)[C@H](C(=O)C=C4[C@@]5(C)C=C(C#N)C(=O)C(C)(C)[C@@H]5CC[C@]43C)[C@@H]2C1', 343),
  ('CC1(C)CC[C@]2(C(=O)NCC(=O)O)CC[C@]3(C)[C@H](C(=O)C=C4[C@@]5(C)C=C(C#N)C(=O)C(C)(C)[C@@H]5CC[C@]43C)[C@@H]2C1', 2260),
  ('O=S(=O)(c1ccccc1)c1c(OCC#CCO)no[n+]1[O-]', 36600),
  ('CC1(C)CC[C@]2(C(=O)NCCCC(=O)OCC#CCOc3no[n+]([O-])c3S(=O)(=O)c3ccccc3)CC[C@]3(C)[C@H](C(=O)C=C4[C@@]5(C)C=C(C#N)C(=O)C(C)(C)[C@@H]5CC[C@]43C)[C@@H]2C1', 381),
  ('CC1(C)CC[C@]2(C(=O)NCCC(=O)OCC#CCOc3no[n+]([O-])c3S(=O)(=O)c3ccccc3)CC[C@]3(C)[C@H](C(=O)C=C4[C@@]5(C)C=C(C#N)C(=O)C(C)(C)[C@@H]5CC[C@]43C)[C@@H]2C1', 462),
  ('C[C@@H](NC(=O)[C@]12CCC(C)(C)C[C@H]1[C@H]1C(=O)C=C3[C@@]4(C)C=C(C#N)C(=O)C(C)(C)[C@@H]4CC[C@@]3(C)[C@]1(C)CC2)C(=O)OCC#CCOc1no[n+]([O-])c1S(=O)(=O)c1ccccc1', 276),
  ('CC1(C)CC[C@]2(C(=O)NCC(=O)OCC#CCOc3no[n+]([O-])c3S(=O)(=O)c3ccccc3)CC[C@]3(C)[C@H](C(=O)C=C4[C@@]5(C)C=C(C#N)C(=O)C(C)(C)[C@@H]5CC[C@]43C)[C@@H]2C1', 232),
  ('COC(=O)[C@]12CCC(C)(C)C[C@H]1[C@H]1C(=O)C=C3[C@@]4(C)C=C(C#N)C(=O)C(C)(C)[C@@H]4CC[C@@]3(C)[C@]1(C)CC2 [BARDOXOLONE METHYL]', 363);

Origin of the recorded values: ChEMBL document CHEMBL3414437
